Protocol Details: PK exposure
Type: in vivo
Condition Parameters: summary statement, method not given
Counter-ions that a name gives are not always drawn.
Quantity Kind: PK exposure

Compound: CC(=O)Nc1cc(Nc2cc(C3CCOCC3)cc(S(C)(=O)=O)n2)c(-c2ccc3c(n2)OCC(C)(C)O3)cn1 [Compound 1 phosphate Form A]
Result: good PK exposure
--
Compound: CC(=O)Nc1cc(Nc2cc(C3CCOCC3)cc(S(C)(=O)=O)n2)c(-c2ccc3c(n2)OCC(C)(C)O3)cn1 [Compound 1 mesylate Form C]
Result: good PK exposure
--
Compound: CC(=O)Nc1cc(Nc2cc(C3CCOCC3)cc(S(C)(=O)=O)n2)c(-c2ccc3c(n2)OCC(C)(C)O3)cn1 [Compound 1 maleate Form A]
Result: good PK exposure
--
Compound: CC(=O)Nc1cc(Nc2cc(C3CCOCC3)cc(S(C)(=O)=O)n2)c(-c2ccc3c(n2)OCC(C)(C)O3)cn1 [Compound 1 fumarate Form B]
Result: good PK exposure
